# Tested on: LOX IMVI melanoma
# assay.name: NCI tumour cell line growth inhibition, 48 h
Please go through the items and note down their TGI.

Study these solved cases before continuing.
[[record]]
compound = "c1ccc(Nn2c(CCCCCCCCc3nnc(COc4ccccc4)n3Nc3ccccc3)nnc2COc2ccccc2)cc1"
endpoint_name = "TGI"
endpoint_result = "> 300 µM"

[[record]]
compound = "O=C(NC12CC3CC(CC(C3)C1)C2)C(=O)c1c[nH]c2ccc([N+](=O)[O-])cc12"
endpoint_name = "TGI"
endpoint_result = "> 52 µM"


I have this compound here, CNC(=O)c1ccccc1[S+]1c2cccc3cccc(c23)C(=O)N1C (stereo not drawn) , and I need its recorded TGI.
> 100 µM

----------
# System: A549 NSCLC
# assay.name: NCI tumour cell line growth inhibition, 48 h
endpoint.name: TGI

For the 6 molecules below, give their TGI values.
1. NC(=O)C(=Cc1ccc(CP(=O)(O)O)cc1)C(N)=O
2. S=c1nc2sc3c(c2c(Nc2ccc(Br)cc2)[nH]1)CCN(N1CCc2c(sc4nc(=S)[nH]c(Nc5ccc(Br)cc5)c24)C1)C3
3. CCN(CC)CCCC(C)Nc1c2ccc(Cl)cc2nc2cc(OC)c(OC)cc12 (stereo not given)
4. Cc1ccc(C(=O)/C(=C\c2ccc([N+](=O)[O-])cc2)S(=O)Cc2ccc(F)cc2)cc1 (stereo not given)
5. O=c1oc2c/c(=C\c3ccccc3)c(=O)c3cccc1c3-2
6. CN(C(=O)C12C3(C(=O)C(C)(C)C)C4C5(C#N)C3C1(C(=O)C(C)(C)C)C5C42C(=O)C(C)(C)C)C(C)(C)C (stereo not given)

1: > 100 µM; 2: > 50 µM; 3: 4.56 µM; 4: 8.8 µM; 5: > 100 µM; 6: > 50 µM

Field: TGI. Fill in for each record below.
1. c1cncc(-c2nc3ccccc3s2)c1
2. Cc1cc(Oc2cnc(=O)[nH]c2)cs1

> 100 µM
> 100 µM

Consider the following items and state reported TGI for each.
1. CCOC(=O)C1=CC(C)(C(=O)OCC)Nc2c(nc(SC)n(C)c2=O)N1 (stereo not given)
2. COP(=O)(OC)c1ccc(NCc2cc(O)ccc2O)cc1

> 10 µM
> 100 µM

----------
# System: UO-31 renal
# assay.name: NCI tumour cell line growth inhibition, 48 h
Where a SMILES comes first, the peptide text is derived from it. [ ]: non-standard residue; d: D form. The star is where a group is joined. ξ: configuration not given here. Propanoyl(3-(4-MeO-Ph)) = COc1ccc(CCC(=O)*)cc1; Thr(3ξ) = CC(O)[C@H](N)C(=O)O; dNMeL = CN[C@H](CC(C)C)C(=O)O; ξLac = CC(O)C(=O)O
Record form. Attribute: TGI. Fill in for each entry.

[[record]]
molecule = "CC(C)(C)c1cc(/C=C/C(=O)CC(=O)/C=C/c2cc(C(C)(C)C)c(O)c(C(C)(C)C)c2)cc(C(C)(C)C)c1O"
measured_target = "UO-31 renal"
endpoint_name = "TGI"
endpoint_result = "> 50 µM"


Below are some molecules; for each one, tell me its TGI.
1. O=c1cc(-c2ccccc2)nc(/C=C(\O)c2ccncc2)n1-c1ccccc1
2. COC(=O)[C@@]1(O)CC(C)C=C1C=O (some centres not stated)
3. CNC(=O)c1ccccc1[S+]1c2cccc3cccc(c23)C(=O)N1C (configuration not stated)
4. Clc1cc(OCC23CC4CC(CC(C4)C2)C3)nc(OCC23CC4CC(CC(C4)C2)C3)n1
5. CCCCCC(O)(CCCCC)CCCCCCCCC1=C(O)c2ccccc2C(=O)C1=O
6. N/C(=N\N=C\c1cc2c(cc1Cl)OCO2)NO
7. O=C(O)CN(CC(=O)O)Cc1ccn(-c2cccc(-n3ccc(CN(CC(=O)O)CC(=O)O)n3)n2)n1

> 100 µM
> 100 µM
> 100 µM
> 100 µM
28 µM
64.2 µM
> 100 µM

For each of the items listed, what is its TGI?
1. COc1ccc(/C=N/n2cnc3c(c2=O)S/C(=C2/SC(=S)N(c4ccc(C)cc4)C2=O)N3c2ccccc2)cc1
2. Cc1ccc(-c2cc(=O)c3cc(C)c(C)c(C(=O)O)c3o2)cc1
3. CC(=O)OC1CC[C@@]2(C)C(CC[C@]3(C)C2CC=C2[C@@H]4CC(C)(C)CCC4(C)CCC23C)[C@@]1(C)C(=O)O (some centres not stated)
4. CSC1(SC)N2Cc3ccccc3N=C2C1(c1ccccc1)c1ccccc1
5. C=CC[C@@H]1C=C[C@@H](C(=O)OC)n2c(=O)n(-c3ccccc3)c(=O)n21

1: > 100 µM; 2: > 100 µM; 3: 35.9 µM; 4: > 100 µM; 5: > 100 µM

Hi team, please reply with TGI for each item in this list.
1. N#CCSc1c(-c2ccccc2)c(=O)n(-c2ccccc2)c(=S)n1-c1ccccc1
2. Cc1cc([N+](=O)[O-])ccc1NS(=O)(=O)c1cc(Cl)ccc1Cl
3. N#CCOc1cccc(C2(N3CC=CCC3)CCCCC2)c1
4. COc1ccc(S(=O)(=O)Nc2ccc(-c3csc(N4C(=O)/C(=C/c5ccccc5)N=C4c4ccccc4)n3)cc2)cc1Cl

> 100 µM
17 µM
> 100 µM
34.1 µM

Required: TGI, one value per molecule below.
1. c1ccc(CCN2CCN=C2Cc2ccccc2)cc1
2. COc1ccc2nc(NCN3C(=O)c4ccccc4C3=O)sc2c1
3. COC(=O)[C@@H](NC(=O)[C@@H](CC(C)C)N(C)C(=O)[C@@H]1CCCN1C(=O)C(C)O)C(C)OC(=O)CCc1ccc(OC)cc1 (some centres not stated) (H-[ξLac]P[dNMeL][Thr(3ξ)](Propanoyl(3-(4-MeO-Ph)))-OMe)
4. O=[N+]([O-])c1ccc2nc(/C=C(\O)c3ccccc3)c(/C=C(\O)c3ccccc3)nc2c1
5. COc1ccc(-c2nnc(-c3c(C)n(C)n(-c4ccccc4)c3=O)o2)cc1
6. CN[C@@H]1C[C@H]2O[C@@](C)([C@@H]1OC)n1c3ccccc3c3c4c(c5c6ccccc6n2c5c31)C(=O)N[C@H]4O
7. C[C@]1(C(=O)O)N[C@H](C(=O)O)CS1

["> 100 µM", "> 100 µM", "> 100 µM", "31.6 µM", "> 100 µM", "0.0547 µM", "> 1000 µM"]

----------
# Test system: CAKI-1 renal
# assay.name: NCI tumour cell line growth inhibition, 48 h
Would you mind telling me the reported TGI of each entry?

Could you report TGI for every entry in the following list?
1. Cn1c(N=[N+]=[N-])cc(=O)n(C)c1=O
2. O=C(Nc1ccc2[nH]c(C(=O)N3CC(CCl)c4c3cc([N+](=O)[O-])c3ccccc43)cc2c1)c1cc2ccccc2o1 (centres undefined)
3. CCCCC1(N=[N+]=[N-])C(=O)C2C=CC=C3c4ccccc4N(C1=O)C32 (centres undefined)
4. COc1nc2ccc(CNc3ccc(C(=O)O)cc3)cc2nc1OC
5. c1cncc(-c2nc3ccccc3s2)c1
6. CN1C(=O)C(=Cc2cn(Cc3ccccc3)c3ccccc23)C(=O)N(C)C1=O

["> 100 µM", "> 1100 µM", "> 31.6 µM", "> 10 µM", "> 100 µM", "> 25.5 µM"]

----------
# Tested on: COLO 205 colon
# assay.name: NCI tumour cell line growth inhibition, 48 h
Field: TGI. Provide a value for each of the molecules that follow.

[[record]]
molecule = "COc1c(-c2cccs2)oc2c(CC(=O)O)cccc2c1=O"
endpoint_name = "TGI"
endpoint_result = "> 100 µM"

[[record]]
molecule = "O=C1c2ccccc2-c2nnc(-c3ccc(Cl)cc3)cc21"
endpoint_name = "TGI"
endpoint_result = "> 10 µM"

[[record]]
molecule = "CN1CCN(/C(N)=C(\\C#N)C(=O)Nc2ccccc2)CC1"
endpoint_name = "TGI"
endpoint_result = "> 100 µM"

[[record]]
molecule = "COc1ccc2nc(NCN3C(=O)c4ccccc4C3=O)sc2c1"
endpoint_name = "TGI"
endpoint_result = "> 100 µM"

[[record]]
molecule = "COc1ccc(-c2nnc(-c3ccncc3)o2)cc1"
endpoint_name = "TGI"
endpoint_result = "> 100 µM"


Kindly give each listed record's TGI.
1. CC(C)(O)[C@@H]1CC[C@@]2(C)CCC[C@H](O)[C@H]2C1
2. CC1CC(=O)Nc2ccc(N=NN(C)C)cc2N1C=O (centres undefined)
3. NC(=O)C[C@H](NC(=O)C1(NC(=O)[C@H](Cc2ccc(CP(=O)(O)O)cc2)NC(=O)C(=O)O)CCCCC1)C(=O)NCCCc1cccc2ccccc12
4. CC(C)(C)OC(=O)N1Cc2cc(O)ccc2C[C@H]1C(=O)O

1: > 100 µM; 2: > 100 µM; 3: > 10 µM; 4: > 100 µM

----------
# Tested on: SF-268 CNS
# assay.name: NCI tumour cell line growth inhibition, 48 h
Give measured TGI for each item. Keep answers brief.

// known answers, use as guide
[[record]]
compound = "COc1ccc(-c2nnc(-c3c(C)n(C)n(-c4ccccc4)c3=O)o2)cc1"
endpoint_result = "> 100 µM"

[[record]]
compound = "Cc1ccc(C(=O)N2CCN(C(=O)c3ccc(C)cc3)c3ccccc32)cc1"
endpoint_result = "> 100 µM"

[[record]]
compound = "C=CCCC(On1c(-c2ccc(Cl)cc2)csc1=S)c1ccccc1 (configuration not stated)"
endpoint_result = "> 100 µM"

[[record]]
compound = "C=CC[N+](CCO)(CCO)CCCCCCCCCCCCCCCCCC"
endpoint_result = "13.3 µM"

[[record]]
compound = "O=c1oc(-c2ccccc2)cc2cccc(O)c12"
endpoint_result = "> 89.9 µM"


# batch size: 2; output TGI per entry
1. Cn1c(/C=C(\C#N)c2cccc(C(F)(F)F)c2)nc2c(N3CCOCC3)nc(Cl)nc21
2. CCCOC(=O)N[C@H]1CCc2cc(OC)c(OC)c(OC)c2-c2ccc(SC)c(=O)cc21

3.25 µM
> 54.1 µM
